Values compiled from patent US6545045B1.

- Assay target: EP2 receptors (Homo sapiens)
- Construct: Immortalized human non-pigmented ciliary epithelial cells (containing EP2 receptors); endogenous in cells; host or cells: immortalized human non-pigmented ciliary epithelial cells
- Sequence (P43116 whole entry): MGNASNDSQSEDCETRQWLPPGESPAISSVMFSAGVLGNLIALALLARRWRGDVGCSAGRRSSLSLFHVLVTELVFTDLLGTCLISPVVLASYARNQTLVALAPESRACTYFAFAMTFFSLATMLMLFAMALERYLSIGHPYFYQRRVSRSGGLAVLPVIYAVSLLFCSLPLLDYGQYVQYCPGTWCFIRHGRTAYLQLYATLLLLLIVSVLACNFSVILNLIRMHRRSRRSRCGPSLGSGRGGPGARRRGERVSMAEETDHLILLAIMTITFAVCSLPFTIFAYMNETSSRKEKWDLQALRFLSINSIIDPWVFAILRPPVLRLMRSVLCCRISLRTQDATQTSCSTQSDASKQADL
- Protocol: cAMP production (radioimmunoassay) via EP2 receptors in immortalized human non-pigmented ciliary epithelial cells
- Type: cell-based
- Applied conditions: cAMP production, stimulated 15-60 min at 23° C; read-out: Potency (EC50, nM) at EP2 Receptors in Immortalized Human Non-pigmented Ciliary Epithelial Cells
Measured property: EC50 (nM)
Just the number in nM, nothing appended.

Q) Under EP2 receptors (Homo sapiens), report EC50 for `CCCCC[C@H](O)/C=C/[C@H]1CCC(=O)[C@@H]1CCCCCCC(=O)O`
A) 500

----------
// values below are reported EC50
- Assay target: EP4 receptors (Cricetulus griseus, UniProt A0A061ILF4)
- Construct: Chinese hamster ovary cells (containing EP4 receptors); endogenous in cells; host or cells: Chinese hamster ovary (CHO) cells
- Sequence (A0A061ILF4 1-488): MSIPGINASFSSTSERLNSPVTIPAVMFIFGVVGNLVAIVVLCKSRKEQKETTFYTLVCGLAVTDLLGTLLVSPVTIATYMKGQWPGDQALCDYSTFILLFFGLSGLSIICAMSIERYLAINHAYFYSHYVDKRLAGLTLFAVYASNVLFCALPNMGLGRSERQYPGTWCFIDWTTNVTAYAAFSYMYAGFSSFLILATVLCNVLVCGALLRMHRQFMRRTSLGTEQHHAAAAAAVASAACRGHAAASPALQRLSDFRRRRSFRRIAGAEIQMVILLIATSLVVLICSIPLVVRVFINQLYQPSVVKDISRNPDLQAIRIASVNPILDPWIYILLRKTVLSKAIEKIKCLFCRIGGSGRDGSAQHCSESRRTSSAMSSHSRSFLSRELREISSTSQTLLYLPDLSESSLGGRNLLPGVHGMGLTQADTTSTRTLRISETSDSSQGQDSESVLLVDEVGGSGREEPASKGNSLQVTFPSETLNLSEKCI
- Protocol: cAMP production (radioimmunoassay) via EP4 receptors in Chinese hamster ovary cells
- Format: cell-based
- Applied conditions: stimulated 15-60 min at 23° C, read-out: Potency (EC50, nM) at EP4 Receptors in Chinese Hamster Ovary Cells
Just the number in nM, nothing appended.

Q) Query EC50 for CCCCC[C@H](O)/C=C/[C@H]1CCC(=O)[C@@H]1CCCCCCC(=O)O [11-deoxy-PGE1]
A) 38

Q) Query EC50 for CCCCC[C@H](O)/C=C/[C@H]1[C@H](O)CC(=O)[C@@H]1C/C=C\CCCC(=O)O [PGE2]
A) 35

----------
- Assay target: EP4 receptors (Cricetulus griseus, UniProt A0A061ILF4)
- Construct: Chinese hamster ovary cells (containing EP4 receptors); endogenous in cells; host or cells: Chinese hamster ovary (CHO) cells
- Protocol: cAMP production (radioimmunoassay) via EP4 receptors in Chinese hamster ovary cells
- Format: cell-based
- Applied conditions: stimulated 15-60 min at 23° C
// values below are reported efficacy at EP4 Receptors in Chinese Hamster Ovary Cells
Just the number in %, nothing appended.

Some entries whose results are on file:
{"columns": ["Smiles structure", "Reported measurement"],
 "data": [
  ["CCCCC[C@H](O)/C=C/[C@H]1CCC(=O)[C@@H]1CCCCCCC(=O)O", 86],
  ["CCCCC(C)(C)[C@H](O)/C=C/[C@H]1[C@H](O)CC(=O)[C@@H]1C/C=C\\CCCC(=O)O", 100],
  ["CCCCC[C@H](O)/C=C/[C@H]1[C@H](O)CC(=O)[C@@H]1C/C=C\\CCCC(=O)O", 100]
]}

Q) Query efficacy at EP4 Receptors in Chinese Hamster Ovary Cells for `CCCCC(C)(C)[C@H](O)/C=C/[C@H]1CCC(=O)[C@@H]1C/C=C\CCCC(=O)O`
A) 99
